Collected Ki values appear next to each entry.
Target desc: MOR (Homo sapiens, UniProt P35372)
Sequence (P35372 whole entry): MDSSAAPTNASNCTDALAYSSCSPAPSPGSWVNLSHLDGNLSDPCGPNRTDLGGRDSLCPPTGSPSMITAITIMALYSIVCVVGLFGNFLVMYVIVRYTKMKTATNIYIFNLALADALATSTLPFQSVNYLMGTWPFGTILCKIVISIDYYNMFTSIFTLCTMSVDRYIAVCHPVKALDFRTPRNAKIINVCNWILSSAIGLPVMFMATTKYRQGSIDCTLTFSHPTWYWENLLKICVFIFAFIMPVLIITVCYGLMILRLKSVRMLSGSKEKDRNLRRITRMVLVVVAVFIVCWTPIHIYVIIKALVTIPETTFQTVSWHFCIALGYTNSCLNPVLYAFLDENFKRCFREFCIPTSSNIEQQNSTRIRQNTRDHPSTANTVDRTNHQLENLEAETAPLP
Protocol description: PDSP secondary radioligand displacement assay, Ki
Type: binding
Protocol conditions: supplement xlsx
# output: bare number, implied unit nM

Here is how some molecules turned out for Ki.
CCC1CC2CC3c4[nH]c5cc(Br)ccc5c4CCN(C2)C13 (stereo not shown): 4210
CC(C)[C@H]1CC2CC3c4[nH]c5ccccc5c4CCN(C2)C31 (stereo partly shown): 3130
CCC1CC2CC3c4[nH]c5cc(Cl)ccc5c4CCN(C2)C13 (stereo not shown): 4450
CCC1CC2CC3c4[nH]c5cc(C(F)(F)F)ccc5c4CCN(C2)C13 (stereo not shown): 3810
CC[C@H]1C[C@H]2C[C@H]3c4[nH]c5ccccc5c4CCN(C2)[C@@H]13 [ibogamine (1), ibogamine, reference compound]: 2460
c1ccc2c3c([nH]c2c1)C1CC2C[C@H](C4CCOCC4)C1N(CC3)C2 (stereo partly shown): 1810

// next entry
// query What value of Ki has been recorded for this entry: CCC1CC2CC3c4c(c5ccccc5n4CC=C(C)C)CCN(C2)C13 (stereo not shown)
// result 6440
